Origin of values: patent US20260209345A1

SYSTEM NAME: T1, recombinant LILRA1 ECD (human, UniProt O75019 17-461)
T1 construct: whole canonical entry named; also called LILA1
T1 sequence (O75019 17-461 limits assumed): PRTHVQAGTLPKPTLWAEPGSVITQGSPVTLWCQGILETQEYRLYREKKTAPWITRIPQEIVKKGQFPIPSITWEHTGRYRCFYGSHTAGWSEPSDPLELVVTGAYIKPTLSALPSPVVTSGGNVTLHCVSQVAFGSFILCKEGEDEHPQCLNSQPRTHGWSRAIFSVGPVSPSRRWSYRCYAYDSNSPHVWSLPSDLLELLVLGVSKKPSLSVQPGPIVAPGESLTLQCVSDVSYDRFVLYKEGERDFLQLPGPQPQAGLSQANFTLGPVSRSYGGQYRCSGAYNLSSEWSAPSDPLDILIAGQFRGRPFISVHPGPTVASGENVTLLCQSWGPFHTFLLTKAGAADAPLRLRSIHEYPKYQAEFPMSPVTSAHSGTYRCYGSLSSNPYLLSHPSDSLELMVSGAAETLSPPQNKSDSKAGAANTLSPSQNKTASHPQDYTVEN
TEST METHOD NOTES: BLI, IgG on AHC sensor, ECD in solution
REPORTED PROPERTY: Kd (nM)
Please reply with the bare figure in nM and do not write the unit itself.

The binder listed as A-032 (antibody, V domains shown, tested as IgG) VH: QVQLVQSGAEVKKPGSSVKVSCKASGGTFQSYAFSWVRQAPGQGLEWMGGIVPQYSTAVYAQKFQGRVTITADESTSTAYMELSSLRSEDTAVYYCAKGPPVGSSSWYTDWYFDLWGRGTLVTVSS VL: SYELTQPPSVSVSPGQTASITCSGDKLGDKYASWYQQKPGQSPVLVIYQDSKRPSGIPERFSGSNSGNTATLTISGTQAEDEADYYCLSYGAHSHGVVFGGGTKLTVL shows Kd equal to 79.5

Documented Kd of A-005 (antibody, V domains shown, tested as IgG) VH: QVQLVQSGAEVKKPGSSVKVSCKASGGTFTIYAINWVRQAPGQGLEWMGGIIPGFHSANYAQKFQGRVTITADESTSTAYMELSSLRSEDTAVYYCAKDLGTYSSGWPYYYGMDVWGQGTTVTVSS VL: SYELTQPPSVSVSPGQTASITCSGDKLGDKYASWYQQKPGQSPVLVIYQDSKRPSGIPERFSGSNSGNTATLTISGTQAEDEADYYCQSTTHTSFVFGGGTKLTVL : 407

GET /value?item= A-036 (antibody, V domains shown, tested as IgG) VH: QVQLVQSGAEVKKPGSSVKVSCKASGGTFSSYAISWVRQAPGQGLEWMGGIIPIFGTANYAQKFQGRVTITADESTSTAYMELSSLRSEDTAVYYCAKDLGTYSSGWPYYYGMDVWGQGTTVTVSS VL: SYELTQPPSVSVSPGQTASITCSGDKLGDKYASWYQQKPGQSPVLVIYQDSKRPSGIPERFSGSNSGNTATLTISGTQAEDEADYYCQLTHLTIYVFGGGTKLTVL &field=Kd returns 42900

So for A-026 (antibody, V domains shown, tested as IgG) VH: QVQLVQSGAEVKKPGSSVKVSCKASGYTFTSHGMSWVRQAPGQGLEWMGGILPIFHTATYAQKFQGRVTITADESTSTAYMELSSLRSEDTAVYYCAKGPPVGSSSWYTDWYFDLWGRGTLVTVSS VL: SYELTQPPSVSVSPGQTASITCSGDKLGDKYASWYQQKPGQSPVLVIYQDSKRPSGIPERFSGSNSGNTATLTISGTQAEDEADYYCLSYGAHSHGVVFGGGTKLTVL , the logged Kd turned out to be 120

The binder listed as A-028 (antibody, V domains shown, tested as IgG) VH: QVQLVQSGAEVKKPGSSVKVSCKASGYSFSEHAMSWVRQAPGQGLEWMGGIIPKFSTSVFAQKFQGRVTITADESTSTAYMELSSLRSEDTAVYYCAKGPPVGSSSWYTDWYFDLWGRGTLVTVSS VL: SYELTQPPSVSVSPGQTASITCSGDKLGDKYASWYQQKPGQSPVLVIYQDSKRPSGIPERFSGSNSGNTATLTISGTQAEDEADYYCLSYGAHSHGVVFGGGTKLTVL shows Kd equal to 48.3

Note to self: Kd recorded for A-034 (antibody, V domains shown, tested as IgG) VH: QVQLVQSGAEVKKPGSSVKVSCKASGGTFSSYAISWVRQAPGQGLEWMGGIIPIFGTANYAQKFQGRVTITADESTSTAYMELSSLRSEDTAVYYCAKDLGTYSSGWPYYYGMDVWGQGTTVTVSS VL: SYELTQPPSVSVSPGQTASITCSGDKLGDKYASWYQQKPGQSPVLVIYQDSKRPSGIPERFSGSNSGNTATLTISGTQAEDEADYYCQLYGHTITVFGGGTKLTVL was 2690

Kindly note the recorded Kd for A-021 (antibody, V domains shown, tested as IgG) VH: QVQLVQSGAEVKKPGSSVKVSCKASGGSITSYAFAWVRQAPGQGLEWMGGIIPGFYAANYAQKFQGRVTITADESTSTAYMELSSLRSEDTAVYYCAKDLGTYSSGWPYYYGMDVWGQGTTVTVSS VL: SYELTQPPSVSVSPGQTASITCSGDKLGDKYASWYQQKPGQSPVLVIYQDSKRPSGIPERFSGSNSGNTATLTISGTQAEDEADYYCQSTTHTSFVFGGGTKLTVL , which is 541

Form: binder = A-019 (antibody, V domains shown, tested as IgG) VH: QVQLVQSGAEVKKPGSSVKVSCKASGYTFTTSAMNWVRQAPGQGLEWMGGIIPYFSTANYAPKFQGRVTITADESTSTAYMELSSLRSEDTAVYYCAKDLGTYSSGWPYYYGMDVWGQGTTVTVSS VL: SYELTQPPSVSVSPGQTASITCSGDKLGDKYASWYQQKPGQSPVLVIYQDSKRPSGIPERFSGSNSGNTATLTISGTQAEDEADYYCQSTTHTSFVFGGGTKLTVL ; Kd = 1030

Reported Kd for A-037 (antibody, V domains shown, tested as IgG) VH: QVQLVQSGAEVKKPGSSVKVSCKASGGTFSSYAISWVRQAPGQGLEWMGGIIPIFGTANYAQKFQGRVTITADESTSTAYMELSSLRSEDTAVYYCARVHLYYHFPASYFDYWGQGTLVTVSS VL: SYELTQPPSVSVSPGQTASITCSGDKLGDKYASWYQQKPGQSPVLVIYQDSKRPSGIPERFSGSNSGNTATLTISGTQAEDEADYYCLASLGTGGVYVFGGGTKLTVL was 1270

The value of Kd measured for the binder A-007 (antibody, V domains shown, tested as IgG) VH: QVQLVQSGAEVKKPGSSVKVSCKASGGSFREYAFSWVRQAPGQGLEWMGSIIPTFHTSNYAGKFQGRVTITADESTSTAYMELSSLRSEDTAVYYCAKDLGTYSSGWPYYYGMDVWGQGTTVTVSS VL: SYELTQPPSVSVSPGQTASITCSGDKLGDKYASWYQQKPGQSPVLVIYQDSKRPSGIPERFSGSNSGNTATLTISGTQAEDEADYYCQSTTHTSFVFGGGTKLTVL turned out to be 322
